Let's look at some compounds and their measured MIC without PB/MIC + PB.
System: A. baumannii A387
Test: MIC without and with sub-inhibitory polymyxin B (Example 4)
Type: cell-based, Acinetobacter baumannii
Conditions: A. baumannii A387; ratio, PB 0.06 μg/ml; 1st experiment

Below, 5 compounds whose answers are already recorded.
| Compound | System | Readout Type | Result |
| --- | --- | --- | --- |
| Cc1c(-c2ccc(N)cc2)ccn2c(=O)c(C(=O)O)cc(C3CC3)c12 | A. baumannii A387 | MIC without PB/MIC + PB | ≥64 |
| Cc1c(-c2ccc(N)cc2)c(F)cn2c(=O)c(C(=O)O)cc(C3CC3)c12 | A. baumannii A387 | MIC without PB/MIC + PB | ≥64 |
| Cc1c(-c2ccc(N)c(F)c2)ccn2c(=O)c(C(=O)O)cc(C3CC3)c12 | A. baumannii A387 | MIC without PB/MIC + PB | ≥32 |
| Cc1c(-c2ccc(CN)c(F)c2)ccn2c(=O)c(C(=O)O)cc(C3CC3)c12 | A. baumannii A387 | MIC without PB/MIC + PB | 2 |
| Cc1c(-c2ccc(N)c(F)c2)c(F)cn2c(=O)c(C(=O)O)cc(C3CC3)c12 | A. baumannii A387 | MIC without PB/MIC + PB | ≥32 |

Asked: Fill in the recorded MIC without PB/MIC + PB for this compound, with A. baumannii A387 as test system: C[C@H]1COc2c(N3CCN(C)CC3)c(F)cc3c(=O)c(C(=O)O)cn1c23 [Levofloxacin, reference compound]
Given back: 1

Asked: I'm curious: which MIC without PB/MIC + PB was measured for Cc1c(-c2ccc(CN)cc2)ccn2c(=O)c(C(=O)O)cc(C3CC3)c12 tested on A. baumannii A387?
Given back: 8

Asked: Which MIC without PB/MIC + PB is reported with A. baumannii A387 for this entry: Cc1c(-c2ccc(CN)cc2)c(F)cn2c(=O)c(C(=O)O)cc(C3CC3)c12 ?
Given back: 8

---

Measured log10(MBC), listed per entry for reference.
Tested on: A. baumannii A387
Test: Preliminary MBC without and with sub-inhibitory polymyxin B (Example 4)
Type: cell-based, Acinetobacter baumannii
Details: Acinetobacter baumannii, A387, A. baumannii A387, +0.06 μg/ml PB, 2nd experiment, read-out: MBC
In our notation, the value equals log10 of MBC in µg/mL.

| Compound | log10(MBC) |
| --- | --- |
| C[C@H]1COc2c(N3CCN(C)CC3)c(F)cc3c(=O)c(C(=O)O)cn1c23 [Levofloxacin, reference compound] | 0.60 |

Asked: Consider the compound Cc1c(-c2ccc(CN)c(F)c2)ccn2c(=O)c(C(=O)O)cc(C3CC3)c12 [Compound 4] and give its measured log10(MBC).
Given back: -0.30

Asked: Entry under review: Cc1c(-c2ccc(CN)cc2)c(F)cn2c(=O)c(C(=O)O)cc(C3CC3)c12 [Compound 6] . Reported log10(MBC)?
Given back: 0.00

Asked: Consider the compound shown here: C[C@@H](O)[C@H]1C(=O)N2C(C(=O)O)=C(S[C@@H]3CN[C@H](C(=O)N(C)C)C3)[C@H](C)[C@H]12 [Meropenem] What is its recorded log10(MBC)?
Given back: 0.30

Asked: Any idea what its log10(MBC) is? The compound is NCC[C@H](O)C(=O)N[C@@H]1C[C@H](N)[C@@H](O[C@H]2O[C@H](CN)[C@@H](O)[C@H](O)[C@H]2O)[C@H](O)[C@H]1O[C@H]1O[C@H](CO)[C@@H](O)[C@H](N)[C@H]1O [Amikacin, reference compound]
Given back: 2.11

---

Tested on: A. baumannii J2
Test: MIC without and with sub-inhibitory polymyxin B (Example 4)
Type: cell-based, Acinetobacter baumannii
Settings: Acinetobacter baumannii, J2, A. baumannii J2; +[…] PB; 2nd experiment; read-out: MIC
Readout Type: MIC

| Compound | Readout Type | Result |
| --- | --- | --- |
| C[C@@H](O)[C@H]1C(=O)N2C(C(=O)O)=C(S[C@@H]3CN[C@H](C(=O)N(C)C)C3)[C@H](C)[C@H]12 | MIC | ≤ 0.125 µg/mL |

Asked: If you can, please state the reported MIC value of Cc1c(-c2ccc(N)cc2)c(F)cn2c(=O)c(C(=O)O)cc(C3CC3)c12 .
Given back: ≤ 0.03 µg/mL

Asked: Which measured MIC value corresponds to Cc1c(-c2ccc(CN)c(F)c2)ccn2c(=O)c(C(=O)O)cc(C3CC3)c12 ?
Given back: 0.06 µg/mL

Asked: Request the reported MIC associated with Cc1c(-c2cc(Cl)c(N)c(Cl)c2)ccn2c(=O)c(C(=O)O)cc(C3CC3)c12
Given back: ≤ 0.03 µg/mL

Asked: Which MIC value is on record for Cc1c(-c2cc(F)c(N)cc2F)ccn2c(=O)c(C(=O)O)cc(C3CC3)c12 ?
Given back: ≤ 0.03 µg/mL

Asked: # get_value(readout='MIC', item= C[C@H]1COc2c(N3CCN(C)CC3)c(F)cc3c(=O)c(C(=O)O)cn1c23 [Levofloxacin, reference compound] )
Given back: 4 µg/mL

Asked: So what does the record say about MIC for Cc1c(-c2ccc(N)cc2)ccn2c(=O)c(C(=O)O)cc(C3CC3)c12 ?
Given back: ≤ 0.03 µg/mL

Asked: Need MIC, item NCC[C@H](O)C(=O)N[C@@H]1C[C@H](N)[C@@H](O[C@H]2O[C@H](CN)[C@@H](O)[C@H](O)[C@H]2O)[C@H](O)[C@H]1O[C@H]1O[C@H](CO)[C@@H](O)[C@H](N)[C@H]1O [Amikacin, reference compound]
Given back: 0.5 µg/mL

Asked: Which value of MIC has been reported for COc1c(N2C[C@@H]3CCCN[C@@H]3C2)c(F)cc2c(=O)c(C(=O)O)cn(C3CC3)c12 in the records?
Given back: 8 µg/mL

---

System: strains of A. baumannii and one strain of Acinetobacter sp.
Assay: MIC with sub-inhibitory concentrations (0.25x MIC) of polymyxin B, panel of Acinetobacter strains (Example 4)
Format: cell-based
Details: 2nd experiment; 0.06 μg/ml polymyxin B; all strains except the ATCC strain
# MIC range with PB (0.25x MIC) Oct. 14, 2008 n = 11 listing for each entry below

For orientation, consider the following solved cases.
| Compound | Result |
| --- | --- |
| C[C@@H](O)[C@H]1C(=O)N2C(C(=O)O)=C(S[C@@H]3CN[C@H](C(=O)N(C)C)C3)[C@H](C)[C@H]12 | ≤0.125 to 32 µg/mL |
| Cc1c(-c2cc(F)c(N)cc2F)ccn2c(=O)c(C(=O)O)cc(C3CC3)c12 | ≤0.03 to 0.5 µg/mL |
| Cc1c(-c2ccc(N)cc2)c(F)cn2c(=O)c(C(=O)O)cc(C3CC3)c12 | ≤0.03 to 2 µg/mL |
| Cc1c(-c2ccc(CN)c(F)c2)ccn2c(=O)c(C(=O)O)cc(C3CC3)c12 | 0.5 to 8 µg/mL |
| Cc1c(-c2ccc(N)cc2)ccn2c(=O)c(C(=O)O)cc(C3CC3)c12 | ≤0.03 to 8 µg/mL |

Asked: Entry under review: Cc1c(-c2ccc(N)c(F)c2)ccn2c(=O)c(C(=O)O)cc(C3CC3)c12 . Reported MIC range with PB (0.25x MIC) Oct. 14, 2008 n = 11?
Given back: ≤0.03 to 2 µg/mL

Asked: May I ask what MIC range with PB (0.25x MIC) Oct. 14, 2008 n = 11 has been recorded for Cc1c(-c2cc(Cl)c(N)c(Cl)c2)ccn2c(=O)c(C(=O)O)cc(C3CC3)c12 ?
Given back: ≤0.03 to 0.5 µg/mL

Asked: Need MIC range with PB (0.25x MIC) Oct. 14, 2008 n = 11, item C[C@H]1COc2c(N3CCN(C)CC3)c(F)cc3c(=O)c(C(=O)O)cn1c23 [Levofloxacin, reference compound]
Given back: 4 to 32 µg/mL

Asked: Which measured MIC range with PB (0.25x MIC) Oct. 14, 2008 n = 11 value corresponds to Cc1c(-c2ccc(CN)cc2)ccn2c(=O)c(C(=O)O)cc(C3CC3)c12 ?
Given back: 0.25 to 8 µg/mL

Asked: Bench note: what MIC range with PB (0.25x MIC) Oct. 14, 2008 n = 11 did COc1c(N2C[C@@H]3CCCN[C@@H]3C2)c(F)cc2c(=O)c(C(=O)O)cn(C3CC3)c12 show?
Given back: 4 to 32 µg/mL

---

System: A. baumannii J2
Assay: Preliminary MBC without and with sub-inhibitory polymyxin B (Example 4)
Format: cell-based, Acinetobacter baumannii
Conditions: Acinetobacter baumannii, J2, read-out: MBC +[…] PB, A. baumannii J2; +[…] polymyxin B; preliminary MBC; 1st experiment
Readout Type: MBC (µg/mL)
Kindly answer with a numeric value in µg/mL, unit omitted.

| Compound | MBC (µg/mL) |
| --- | --- |
| Cc1c(-c2ccc(CN)cc2)c(F)cn2c(=O)c(C(=O)O)cc(C3CC3)c12 [Compound 6] | 1 |
| Cc1c(-c2ccc(N)cc2)ccn2c(=O)c(C(=O)O)cc(C3CC3)c12 [Compound 8] | 0.125 |
| Cc1c(-c2ccc(CN)c(F)c2)ccn2c(=O)c(C(=O)O)cc(C3CC3)c12 [Compound 4] | 1 |

Asked: Tell me the measured MBC of Cc1c(-c2cc(Cl)c(N)c(Cl)c2)ccn2c(=O)c(C(=O)O)cc(C3CC3)c12 [Compound 3] , please.
Given back: 0.125

Asked: Fill in: MBC of Cc1c(-c2ccc(N)c(F)c2)c(F)cn2c(=O)c(C(=O)O)cc(C3CC3)c12 [Compound 17] is ___
Given back: 0.06
